- TESTED ON: Multidrug resistance-associated protein 1 (Homo sapiens, UniProt P33527)
- Sequence (P33527 whole entry): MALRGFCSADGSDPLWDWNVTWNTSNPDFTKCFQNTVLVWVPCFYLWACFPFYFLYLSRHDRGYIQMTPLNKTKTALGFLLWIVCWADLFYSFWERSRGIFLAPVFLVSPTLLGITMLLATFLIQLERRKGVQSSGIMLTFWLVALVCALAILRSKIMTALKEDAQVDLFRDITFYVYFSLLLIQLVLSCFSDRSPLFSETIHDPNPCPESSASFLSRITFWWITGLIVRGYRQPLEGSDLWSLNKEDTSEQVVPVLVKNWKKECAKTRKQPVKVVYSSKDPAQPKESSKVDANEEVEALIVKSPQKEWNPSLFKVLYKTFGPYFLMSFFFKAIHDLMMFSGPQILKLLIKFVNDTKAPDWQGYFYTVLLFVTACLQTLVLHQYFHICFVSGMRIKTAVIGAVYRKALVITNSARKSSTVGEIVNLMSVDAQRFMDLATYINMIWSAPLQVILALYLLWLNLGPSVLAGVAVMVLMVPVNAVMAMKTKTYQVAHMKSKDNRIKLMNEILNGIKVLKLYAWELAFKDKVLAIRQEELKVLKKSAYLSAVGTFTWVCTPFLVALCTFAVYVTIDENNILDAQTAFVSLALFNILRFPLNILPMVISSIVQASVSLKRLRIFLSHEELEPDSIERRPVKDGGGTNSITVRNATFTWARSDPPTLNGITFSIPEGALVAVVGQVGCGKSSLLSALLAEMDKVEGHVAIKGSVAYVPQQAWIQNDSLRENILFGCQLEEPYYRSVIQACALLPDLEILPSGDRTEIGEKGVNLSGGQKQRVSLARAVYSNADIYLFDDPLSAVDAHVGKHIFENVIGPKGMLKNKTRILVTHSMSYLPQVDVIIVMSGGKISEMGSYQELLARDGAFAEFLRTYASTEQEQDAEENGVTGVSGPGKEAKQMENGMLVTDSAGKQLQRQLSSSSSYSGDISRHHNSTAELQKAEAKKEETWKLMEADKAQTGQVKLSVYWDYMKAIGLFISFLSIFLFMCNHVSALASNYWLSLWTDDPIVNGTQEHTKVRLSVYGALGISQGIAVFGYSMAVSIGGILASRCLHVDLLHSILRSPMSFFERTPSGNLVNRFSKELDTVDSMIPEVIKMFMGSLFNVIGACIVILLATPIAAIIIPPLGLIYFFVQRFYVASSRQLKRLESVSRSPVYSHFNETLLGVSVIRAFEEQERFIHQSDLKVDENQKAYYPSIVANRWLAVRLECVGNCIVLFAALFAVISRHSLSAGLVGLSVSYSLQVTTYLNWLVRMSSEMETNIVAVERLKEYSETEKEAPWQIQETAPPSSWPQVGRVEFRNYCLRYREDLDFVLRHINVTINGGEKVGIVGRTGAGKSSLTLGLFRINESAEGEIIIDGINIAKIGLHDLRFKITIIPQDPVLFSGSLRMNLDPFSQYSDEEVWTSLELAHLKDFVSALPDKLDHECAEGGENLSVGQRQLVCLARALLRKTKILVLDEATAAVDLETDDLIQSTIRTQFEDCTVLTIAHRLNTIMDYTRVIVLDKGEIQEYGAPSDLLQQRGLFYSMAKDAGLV
- TEST DETAILS: Inhibition of ABCC1 in human NCI-H69AR cells assessed as increase in daunorubicin fluorescence intensity using daunorubicin as tracer preincubated for 30 mins followed by daunorubicin addition and measured for 180 mins by flow cytometry
- Format: cell-based
RECORDED ENDPOINT: IC50 (nM)

>>> observed_measurement("O=C(Cn1nc(C(=O)Nc2cccnc2)c2ccccc21)Nc1ccc(Cl)cc1")
5150
>>> observed_measurement("COc1cccc(NC(=O)c2nn(CC(=O)Nc3ccccc3OC)c3ccccc23)c1")
2190
>>> observed_measurement("O=C(Cn1nc(C(=O)Nc2ccccn2)c2ccccc21)Nc1cc(Cl)ccc1Cl")
492
>>> observed_measurement("COc1cccc(NC(=O)Cn2nc(C(=O)Nc3cccc(OC)c3)c3ccccc32)c1")
1480
